measurement-notes: Specific activity of purified CHI, absorbance decrease at 384 nm, eriodictyol chalcone; further: unit not given here
Type: biochemical
test-settings: purified CHI in 50 mM PBS, 100 μM substrate, 25° C.
readout-label: Specific activity, Eriodictyol chalcone

molecule | readout-value
CHI6: Chalcone isomerase from Lachnoclostridium sp., access no. HCD45524.1 (protein, listed as Lachnoclostridium sp.) GTEFDPMRSFIYVDVIKEEYRHKLQHWLYFHHIPESISQFEPYCTKYAFYNALPVPEGGERFGTARMQITEHSWLVNIMDPALKVKAFQEYMPIEALKWQGTVPETAGDVLMSGDDARCTGGNNGCMPFVFAFCPMWWEEDVKGAGRTLTEGANYRWNFALTYPEGISKEEGDKWLFEEVFPYFEANNCCTRILTSKVRQEINGCPMYRVVEMWFTGPTAWHHLAVETADKIKSPSWAKDGDVFPYLKSGFEIRGAFVTDYPTCDAYSQYRGYIPRR | 17.0
